tested.on: RIPK2 (human)
test.method.notes: radiometric filter-binding kinase assay
test.context: compound 10.0 µM
readout.label: residual activity (%)

NC(=O)c1cc(-c2ccnc(NC3CCCCC3)c2)nc(N2CCNCC2)c1 | 79
COc1cc(C(=O)N2CCOCC2)c(F)cc1Nc1ncc(C(F)(F)F)c(NC2CC2)n1 | 79
NCC(=O)Nc1ccc(-n2nc(C(F)(F)F)cc2-c2ccc3c(ccc4ccccc43)c2)cc1 | 81

---

tested.on: MAPKAPK5 (human) (UniProt Q8IW41)
Sequence (Q8IW41 whole entry, looked up): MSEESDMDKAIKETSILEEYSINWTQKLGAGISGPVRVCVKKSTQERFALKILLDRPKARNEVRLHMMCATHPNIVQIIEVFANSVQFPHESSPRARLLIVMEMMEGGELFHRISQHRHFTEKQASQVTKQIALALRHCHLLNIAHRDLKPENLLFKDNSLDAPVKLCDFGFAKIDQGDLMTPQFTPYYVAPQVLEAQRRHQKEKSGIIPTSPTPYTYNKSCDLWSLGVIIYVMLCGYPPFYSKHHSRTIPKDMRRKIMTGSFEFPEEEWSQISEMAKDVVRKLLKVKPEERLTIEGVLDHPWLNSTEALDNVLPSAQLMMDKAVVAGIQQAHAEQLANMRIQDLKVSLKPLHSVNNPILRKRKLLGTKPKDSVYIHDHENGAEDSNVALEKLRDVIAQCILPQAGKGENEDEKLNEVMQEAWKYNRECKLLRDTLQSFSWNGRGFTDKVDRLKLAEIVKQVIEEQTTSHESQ
test.method.notes: radiometric filter-binding kinase assay
test.context: compound 0.1 µM
readout.label: residual activity (%)

NC(=O)Nc1ccc2c(c1)/C(=C/c1cc(-c3cccnc3)c[nH]1)C(=O)N2 | 95
COc1cc(O)c2c(c1)[C@H]1OC1C[C@H](O)[C@H](O)C(=O)/C=C\C[C@H](C)OC2=O (stereo partly drawn) | 72
c1ccc2c(-c3cnn4cc(-c5ccc(N6CCNCC6)cc5)cnc34)ccnc2c1 | 89

---

tested.on: CDK2 CCNA2 (human) (UniProt P20248+P24941)
test.method.notes: radiometric filter-binding kinase assay
test.context: compound 10.0 µM
readout.label: residual activity (%)

Consider the worked cases shown below.
CNc1nc(-c2ccc3c(N)n[nH]c3c2)cc(N2C[C@@H](C(=O)NC3CCCCC3)CC[C@H]2C)n1 | 85
Cc1ccc(Sc2cnc(Nc3cccc(Br)n3)s2)cc1C(=O)N1CCN(C(=O)CN)CC1 | 3
COc1ccc2c(c1)c1c3c(c4c5ccccc5n(C)c4c1n2CC(O)CN(C)C)C(=O)NC3=O (stereo not given) | 81
C[C@H]1CCCC(=O)CCC/C=C/c2cc(O)cc(O)c2C(=O)O1 | 32
NC(=O)Nc1ccc2c(c1)/C(=C/c1cc(-c3cccnc3)c[nH]1)C(=O)N2 | 6

[I] NC1(c2ccc(-c3nc4ccn5c(=O)[nH]nc5c4cc3-c3ccccc3)cc2)CCC1
[II] N#Cc1c(C2CCNCC2)cc(-c2c(O)cccc2OCC2CC2)nc1N
Exercise: Sorting by residual activity in descending order, would I or II appear first? # answer = label of selected item
Key: I

[a] COc1cc(C(=O)N2CCOCC2)c(F)cc1Nc1ncc(C(F)(F)F)c(NC2CC2)n1
[b] FC(F)(F)c1ccc(-c2ccc(Oc3cncc4sc(-c5nn[nH]n5)cc34)cc2)cc1
[c] CCOC(=O)c1ccc(N2NC(=O)/C(=C/c3ccc([N+](=O)[O-])o3)C2=O)cc1
Exercise: Sort low-to-high on residual activity, please. Enter labels, ranked according to the request.
Key: b, a, c
(b: 47%, a: 72%, c: 110%)

[a] COc1cc2ncn(-c3cc(OCc4ccccc4S(C)(=O)=O)c(C#N)s3)c2cc1OC
[b] NC(=O)c1cc2c(-c3cccc(-c4ccccc4)c3)cnc(N)c2s1
Exercise: Min residual activity? a | b # answer = label of selected item
Key: b

---

tested.on: BRSK1 (human)
test.method.notes: radiometric filter-binding kinase assay
test.context: compound 1.0 µM
readout.label: residual activity (%)

Cc1cccc(-c2nn(C(=S)Nc3ccccc3)cc2-c2ccnc3ccccc23)n1 | 95
CC1=C(CO)C(=O)O[C@@H]([C@@H](C)[C@H]2CC[C@H]3[C@@H]4C[C@H]5O[C@]56[C@@H](O)C=CC(=O)[C@]6(C)C4CC[C@]23C)C1 (some centres not stated) | 111
Cc1cc(NC(=O)c2cccc(NC(=O)/C=C/CN(C)C)c2)ccc1Nc1nccc(-c2cccnc2)n1 | 87
c1ccc2c(-c3cnn4cc(-c5ccc(N6CCNCC6)cc5)cnc34)ccnc2c1 | 85
NC1(c2ccc(-c3nc4ccn5c(=O)[nH]nc5c4cc3-c3ccccc3)cc2)CCC1 | 112
CC(C)(C#N)c1ccc(N2C(=O)OCc3cnc4ccc(-c5cnc6ccccc6c5)cc4c32)cc1 | 97
O=C(NOC[C@H](O)CO)c1ccc(F)c(F)c1Nc1ccc(I)cc1Cl | 97
